Taken from patent US6458802B1.

Recorded melting point by entry
Where a name gives a salt, the structure may show the parent alone.
Give just the numeric value; °C need not be written.

Fc1ccc2[nH]cc(C3=CCN(CC4COc5cc(F)c6ncccc6c5O4)CC3)c2c1 (stereo not shown) (as salt: fumarate) (hydrate or solvate) ... 190
C1=C(c2c[nH]c3ccccc23)CCN(C[C@H]2COc3ccc4ncccc4c3O2)C1 (hydrate or solvate) ... 217
COc1ccc2[nH]cc(C3=CCN(C[C@H]4COc5ccc6ncccc6c5O4)CC3)c2c1 (as salt: fumarate) ... 170
NC(=O)c1ccc2[nH]cc(C3=CCN(C[C@H]4COc5ccc6ncccc6c5O4)CC3)c2c1 (as salt: fumarate) (hydrate or solvate) ... 219
Cc1ccc2c3c(ccc2n1)OCC(CN1CC=C(c2c[nH]c4ccccc24)CC1)O3 (stereo not shown) ... 210

# input Which melting point is listed for CCc1ccc2c3c(ccc2n1)OCC(CN1CC=C(c2c[nH]c4ccccc24)CC1)O3 (stereo not shown) ?
# output 190

# input Which melting point is listed for Cc1ccc2c3c(ccc2n1)OCC(CN1CCC(c2c[nH]c4ccccc24)CC1)O3 (stereo not shown) (as salt: fumarate) (hydrate or solvate) ?
# output 206
